Reported MIC is given for each of the following compounds.
tested on: Influenza A0; experiment: microbe, parasite or virus in culture; type: cell-based; conditions: virus A = Influenza A0, MDCK, Vero and HEL cells, 2 or 3 days
The reply should contain only the number, in µg/mL.

Examples with answers:
compound="NNS(=O)(=O)c1cc(C(=O)O)ccc1Cl [Compound 7]" test_result=10
compound="O=C(O)c1ccc(Cl)c(S(=O)(=O)N2CCCC2)c1 [Compound 12]" test_result=30
compound="NS(=O)(=O)c1cc(C(=O)O)c(F)cc1Cl [Compound 16]" test_result=30
compound="N=C(N)NNS(=O)(=O)c1cc(C(=O)O)c(Cl)cc1Cl [Compound 22]" test_result=100

In the following, a different compound is considered.
stdin: # MIC lookup, item NS(=O)(=O)c1cc(Br)cc(C(=O)O)c1 [Compound 26]
stdout: 30

###

test system: influenza A0 virus; assay: animal or person; type: in vivo, mice; conditions: Mus musculus, ip, 360 h; intraperitoneal, 100 mg/kg, twice a day for 14 days; survivors at 15th day; read-out: Survival rate
Form field: responders at 100 mg/kg (one value per entry).
# value in %; strip the unit string

Solved cases (8 shown):
smiles=NC(=O)C(=O)NNS(=O)(=O)c1cc(C(=O)O)c(Cl)cc1Cl assayed_system="influenza A0 virus" unit_label=% test_result=40
smiles=NC(=O)NNS(=O)(=O)c1cc(C(=O)O)c(Cl)cc1Cl assayed_system="influenza A0 virus" unit_label=% test_result=40
smiles=CONS(=O)(=O)c1cc(C(=O)O)ccc1Cl assayed_system="influenza A0 virus" unit_label=% test_result=50
smiles=N=C(N)NS(=O)(=O)c1cc(C(=O)O)c(Cl)cc1Cl assayed_system="influenza A0 virus" unit_label=% test_result=40
smiles=O=C(O)c1ccc(Cl)c(S(=O)(=O)NCCO)c1 assayed_system="influenza A0 virus" unit_label=% test_result=40
smiles=CN(CCO)S(=O)(=O)c1cc(C(=O)O)ccc1Cl assayed_system="influenza A0 virus" unit_label=% test_result=60
smiles=NS(=O)(=O)c1cc(C(=O)O)c(Br)cc1Cl assayed_system="influenza A0 virus" unit_label=% test_result=70
smiles=NS(=O)(=O)c1cc(Br)cc(C(=O)O)c1 assayed_system="influenza A0 virus" unit_label=% test_result=40

stdin: Which responders at 100 mg/kg reading was recorded for the compound NS(=O)(=O)c1cc(C(=O)O)cc(Cl)c1Cl ?
stdout: 70

stdin: For the compound shown here, N=C(N)NNS(=O)(=O)c1cc(C(=O)O)c(Cl)cc1Cl , give the reported responders at 100 mg/kg.
stdout: 40

###

tested on: Influenza B; experiment: microbe, parasite or virus in culture; assay type: cell-based
Below, each entry is listed with its recorded MIC.
Give the number; µg/mL is assumed, so skip it.

compound="NS(=O)(=O)c1cc(C(=O)O)c(Cl)cc1F [Compound 17]" unit_label=µg/mL test_result=300

stdin: For the compound NNS(=O)(=O)c1cc(C(=O)O)ccc1Cl [Compound 7] , what MIC is on record?
stdout: 100

stdin: Recorded MIC for CN(CCO)S(=O)(=O)c1cc(C(=O)O)ccc1Cl [Compound 6] , please?
stdout: 300

stdin: Which MIC value is on record for O=C(O)c1ccc(Cl)c(S(=O)(=O)NNc2ccc(Cl)nn2)c1 [Compound 10] ?
stdout: 300

stdin: Fill blank: measured MIC of the compound O=C(O)c1ccc(Cl)c(S(=O)(=O)N2CCCC2)c1 [Compound 12] is ____.
stdout: 300

stdin: Request the reported MIC associated with NS(=O)(=O)c1cc(C(=O)O)cc([N+](=O)[O-])c1Cl [Compound 15]
stdout: 300

stdin: Find the recorded MIC belonging to Nc1cc(Cl)c(S(N)(=O)=O)cc1C(=O)O [Compound 14] and report it.
stdout: 300

stdin: Which MIC value belongs to NS(=O)(=O)c1cc(Cl)cc(C(=O)O)c1 [Compound 25] ?
stdout: 100

stdin: // lookup MIC for NC(=O)NNS(=O)(=O)c1cc(C(=O)O)c(Cl)cc1Cl [Compound 23]
stdout: 300

stdin: Param item = CN1CCN(S(=O)(=O)c2cc(C(=O)O)ccc2Cl)CC1 [Compound 13] ; retrieve measured MIC.
stdout: 100

stdin: Requested field: MIC. Item: NS(=O)(=O)c1cc(C(=O)O)c(Br)cc1Cl [Compound 18]
stdout: 300

stdin: Fill in the blank: the reported MIC of N=C(N)NS(=O)(=O)c1cc(C(=O)O)c(Cl)cc1Cl [Compound 21] is ____.
stdout: 300

stdin: For the compound NS(=O)(=O)c1ccc(Cl)cc1C(=O)O [Compound 27] , what MIC is on record?
stdout: 100
